Tested on: Staphylococcus aureus
Experiment: Antibacterial activity against Staphylococcus aureus assessed as zone of inhibition
Format: functional
ASSAY_METRIC: inhibition zone (IZ) (mm)

• CC1(C)S[C@@H]2[C@H](NC(=O)[C@H](N)c3ccccc3)C(=O)N2[C@H]1C(=O)O = 21
• NC(=O)c1c(Nc2ccccc2)nn2c(-c3ccc(O)cc3)ccnc12 = 9
• CN(C)[C@@H]1C(O)=C(C(N)=O)C(=O)[C@@]2(O)C(O)=C3C(=O)c4c(O)cccc4[C@@](C)(O)[C@H]3C[C@@H]12 = 25
• COC(=O)c1cnc2c(C(=O)Nc3ccccc3)cnn2c1C = 19
• Nc1nn2c(-c3ccc(S(=O)(=O)c4ccccc4)cc3)ccnc2c1/N=N/c1cccc(Cl)c1 = 23.4
• O=C(Nc1ccccc1)c1cnn2c(-c3ccc(Cl)cc3)ccnc12 = 17
• CCNc1nn2c(-c3ccc(Br)cc3)ccnc2c1C(N)=O = 9
• NC(=O)c1c(Nc2ccccc2)nn2c(-c3ccccc3)ccnc12 = 10
• O=C(Nc1ccccc1)c1cnn2c(-c3ccccc3)ccnc12 = 10
• NC(=O)c1c(Nc2ccc(Br)cc2)nn2c(-c3ccc(Cl)cc3)ccnc12 = 9
• NC(=O)c1c(Nc2ccc(Br)cc2)nn2c(-c3ccc(Br)cc3)ccnc12 = 9
• CSc1nn2c(-c3ccccc3)c(C#N)c(N)nc2c1-c1nc2ccccc2n1C = 9
• COc1ccc(Nc2nn3c(-c4ccccc4)cc(-c4ccccc4)nc3c2C(N)=O)cc1 = 9

----------
Catalogue of compounds with associated MIC
Tested on: Pseudomonas aeruginosa
Experiment: Antibacterial activity against Pseudomonas aeruginosa
Format: functional
ASSAY_METRIC: MIC (µg/mL)

• COc1ccc(Nc2nn3c(-c4ccccc4)ccnc3c2C(N)=O)cc1 = 7.81
• COc1ccc(Nc2nn3c(-c4ccc(C)cc4)ccnc3c2C(N)=O)cc1 = 7.81
• COc1ccc(Nc2nn3c(-c4ccccc4)cc(-c4ccccc4)nc3c2C(N)=O)cc1 = 15.6
• NC(=O)c1c(Nc2ccccc2)nn2c(-c3ccccc3)ccnc12 = 7.81
• CN(C)[C@@H]1C(O)=C(C(N)=O)C(=O)[C@@]2(O)C(O)=C3C(=O)c4c(O)cccc4[C@@](C)(O)[C@H]3C[C@@H]12 = 62.5
• Cc1ccc(-c2ccnc3c(C(N)=O)c(Nc4ccccc4)nn23)cc1 = 7.81

----------
Tested on: Fusarium verticillioides
Assay: Antifungal activity against Fusarium moniliforme by dry weight method
Format: functional
ASSAY_METRIC: Activity

• CSc1nn2c(-c3ccccc3)c(C#N)c(=O)[nH]c2c1-c1nc2ccccc2n1C = 0.16
• CSc1nn2c(C)cc(C)nc2c1-c1nc2ccccc2n1C = 0.11
• CSc1nn2c(C)cc(=O)[nH]c2c1-c1nc2ccccc2n1C = 0.12
• CSc1nn2c(-c3cccs3)c(C#N)c(N)nc2c1-c1nc2ccccc2n1C = 0.28
• CSc1nn2c(-c3ccccc3)c(C#N)c(N)nc2c1-c1nc2ccccc2n1C = 0.19

----------
Test system: HCT-116
Test: Cytotoxicity against human HCT-116 cells by MTT assay
Type: functional, cell-based
ASSAY_METRIC: IC50 (µg/mL)

- Cc1ccc(-c2nc3c(/N=N/c4cccc(C(F)(F)F)c4)c(N)nn3c(N)c2C#N)cc1: 1.89
- Cc1ccc(-c2nc3c(/N=N/c4cccc(C(F)(F)F)c4)c(N)nn3c(O)c2C#N)cc1: 12
- CC(=O)O[C@H]1C(=O)[C@@]2(C)[C@H]([C@H](OC(=O)c3ccccc3)[C@]3(O)C[C@H](OC(=O)[C@H](O)[C@@H](NC(=O)c4ccccc4)c4ccccc4)C(C)=C1C3(C)C)[C@]1(OC(C)=O)CO[C@@H]1C[C@@H]2O: 2.9
- CC1=CC(c2ccccc2)n2nc(-c3ccccc3)cc2N1 (centres undefined): 1.89

----------
Experiment: Cytotoxicity against human WI-38 cells by MTT assay
Assay type: toxicity, cell-based
pIC50: −log10 of the molar value.
ASSAY_METRIC: pIC50

- COc1ccc(Nc2nn3c(-c4ccccc4)cc(-c4ccccc4)nc3c2C(N)=O)c(OC)c1: 4.75

----------
Test system: HepG2
Experiment: Cytotoxicity against human HepG2 cells by MTT assay
Assay type: functional, cell-based
Catalogue of compounds with associated IC50
ASSAY_METRIC: IC50 (µM)

- NC(=O)c1c(Nc2ccccc2)nn2c(-c3ccc(F)cc3)ccnc12: 72.2
- NC(=O)c1c(Nc2ccc(Cl)cc2)nn2c(-c3ccccc3)ccnc12: 72.2
- NC(=O)c1c(Nc2ccc(Cl)cc2)nn2c(-c3ccc(F)cc3)ccnc12: 72.2
- COc1ccc(Nc2nn3c(-c4ccc(Br)cc4)ccnc3c2C(N)=O)cc1: 70.3
- NC(=O)c1c(Nc2ccccc2)nn2c(-c3ccc(Br)cc3)ccnc12: 76.2
- NC(=O)c1c(Nc2ccccc2)nn2c(-c3ccc(Cl)cc3)ccnc12: 86.6

----------
System: SiHa
Assay: Cytotoxicity against human SiHa cells by MTT assay
Format: functional, cell-based
pIC50: −log10 of the molar value.
Catalogue of compounds with associated pIC50
ASSAY_METRIC: pIC50

* COc1ccc(-c2cc(-c3nn4cc(-c5ccncc5)cnc4c3S(=O)(=O)c3cc(OC)c(OC)c(OC)c3)on2)cc1 | 6.74
* COc1cc(-c2cc(C(=O)N3CCN(C(=O)c4ccccc4NCc4ccco4)CC3)nc3cc(-c4ccccc4)nn23)cc(OC)c1OC | 5.79
* COc1cc(-c2cc(C(=O)N3CCN(C(=O)c4ccccc4NCc4cccs4)CC3)nc3cc(-c4ccccc4)nn23)cc(OC)c1OC | 5.81
* CC[C@H](CO)Nc1nc(NCc2ccccc2)c2ncn(C(C)C)c2n1 | 5.57

----------
Catalogue of compounds with associated IC50
System: HepG2
Assay: Cytotoxicity against human HepG2 cells by MTT assay
Type: functional, cell-based
ASSAY_METRIC: IC50

* NC(=O)c1c(Nc2ccc(Cl)cc2)nn2c(-c3ccc(Cl)cc3)ccnc12 | 72.2 µM
* NC(=O)c1c(Nc2ccc(Cl)cc2)nn2c(-c3ccc(Br)cc3)ccnc12 | 72.2 µM
* CC1=CC(c2ccccc2)n2nc(C)cc2N1 (stereo not drawn) | 24.8 µg/mL
* Cc1ccc(Nc2nn3c(-c4ccc(Cl)cc4)ccnc3c2C(N)=O)cc1 | 72.2 µM
* COc1ccc(Nc2nn3c(-c4cccs4)ccnc3c2C(N)=O)cc1 | 72.2 µM
* COc1ccc(-c2ccnc3c(C(N)=O)c(Nc4ccccc4)nn23)cc1 | 79.8 µM
* Cc1cc(C)nc(NS(=O)(=O)c2ccc(/N=N/c3c(N)nc4c(/N=N/c5ccc(C(F)(F)F)cc5)c(N)nn4c3N)cc2)n1 | 3.9 µg/mL
* N#Cc1c(-c2ccccc2)nc2c(/N=N/c3cccc(C(F)(F)F)c3)c(N)nn2c1O | 2.41 µg/mL
* Cc1ccc(Nc2nn3c(-c4ccc(Br)cc4)ccnc3c2C(N)=O)cc1 | 72.2 µM
* CC1(C)CC(=O)c2cnc3c(C(N)=O)c(Nc4ccccc4)nn3c2C1 | 77.6 µM
* Cc1ccc(-c2nc3c(/N=N/c4cccc(C(F)(F)F)c4)c(N)nn3c(O)c2C#N)cc1 | 8.47 µg/mL
* COc1cccc2c1C(=O)c1c(O)c3c(c(O)c1C2=O)C[C@@](O)(C(=O)CO)C[C@@H]3O[C@H]1C[C@H](N)[C@H](O)[C@H](C)O1 [DOXORUBICIN] | 80.9 µM
* COc1ccc(Nc2nn3c4c(cnc3c2C(=O)Nc2ccc(Cl)cc2)C(=O)CC(C)(C)C4)cc1 | 72.2 µM
* CC1=CC(c2ccccc2)n2nc(-c3ccc(C)cc3)cc2N1 (stereo not drawn) | 10.3 µg/mL
* Cc1ccc(-c2nc3c(/N=N/c4cccc(C(F)(F)F)c4)c(N)nn3c(N)c2C#N)cc1 | 0.64 µg/mL
* CC(=O)O[C@H]1C(=O)[C@@]2(C)[C@H]([C@H](OC(=O)c3ccccc3)[C@]3(O)C[C@H](OC(=O)[C@H](O)[C@@H](NC(=O)c4ccccc4)c4ccccc4)C(C)=C1C3(C)C)[C@]1(OC(C)=O)CO[C@@H]1C[C@@H]2O [PACLITAXEL] | 4.3 µg/mL
* COc1ccc(-c2ccnc3c(C(N)=O)c(Nc4ccc(Cl)cc4)nn23)cc1 | 72.2 µM
* Nc1nc2c(/N=N/c3ccc(C(F)(F)F)cc3)c(N)nn2c(N)c1/N=N/c1nccs1 | 4.1 µg/mL

----------
System: Escherichia coli
Test: Antibacterial activity against Escherichia coli assessed as zone of inhibition
Format: functional
ASSAY_METRIC: inhibition zone (IZ) (mm)

* Cc1ccc(-n2cnc3c(cnn3-c3cc(C)nc4c(C#N)cnn34)c2=O)cc1 | 12.2
* CC1(C)S[C@@H]2[C@H](NC(=O)[C@H](N)c3ccccc3)C(=O)N2[C@H]1C(=O)O [AMPICILLIN] | 25
* O=C(Nc1ccccc1)c1cnn2c(-c3ccc(Cl)cc3)ccnc12 | 10
* Nc1nn2c(-c3ccc(S(=O)(=O)c4ccccc4)cc3)ccnc2c1/N=N/c1ccccc1[N+](=O)[O-] | 25.5
* O=C(Nc1ccccc1)c1cnn2c(-c3ccccc3)ccnc12 | 10
* O=C(Nc1ccccc1)c1cnn2c(-c3ccc([N+](=O)[O-])cc3)ccnc12 | 11
* COc1ccc(Nc2nn3c(N)c(C#N)c(-c4cc(OC)ccc4OC)nc3c2C(=O)Nc2ccc(Cl)cc2)cc1 | 16
* NC(=O)c1c(Nc2ccc(Br)cc2)nn2c(-c3ccccc3)ccnc12 | 9
* Cc1cc(-n2ncc(C#N)c2N)n2ncc(C#N)c2n1 | 14.2
* COc1ccc(-c2ccnc3c(C(=O)Nc4ccccc4)cnn23)cc1 | 10
